Target: T1, human FGFR3b expressed with a C-terminal murine Fc tag (hFGFR3b.mFc) (human)
T1 construct: called dimeric; also called REGN3153; dimeric human FGFR3b
T1 chain: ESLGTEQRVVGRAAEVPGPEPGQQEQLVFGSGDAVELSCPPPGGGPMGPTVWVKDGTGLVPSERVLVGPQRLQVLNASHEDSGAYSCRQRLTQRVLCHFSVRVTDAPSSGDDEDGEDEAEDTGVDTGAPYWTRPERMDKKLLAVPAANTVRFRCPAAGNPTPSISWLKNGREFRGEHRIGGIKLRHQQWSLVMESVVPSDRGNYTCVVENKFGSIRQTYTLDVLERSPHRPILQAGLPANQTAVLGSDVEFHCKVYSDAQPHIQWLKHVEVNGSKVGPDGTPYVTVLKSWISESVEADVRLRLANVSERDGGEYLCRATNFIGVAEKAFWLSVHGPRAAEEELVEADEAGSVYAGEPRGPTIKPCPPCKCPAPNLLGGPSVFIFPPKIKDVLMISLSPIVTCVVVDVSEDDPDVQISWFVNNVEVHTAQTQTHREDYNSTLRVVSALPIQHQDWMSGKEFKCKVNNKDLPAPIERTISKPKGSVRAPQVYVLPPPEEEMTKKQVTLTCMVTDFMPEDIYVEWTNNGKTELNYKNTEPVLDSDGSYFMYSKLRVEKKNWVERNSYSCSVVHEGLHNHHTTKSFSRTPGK
Test: SPR Biacore, mAb captured on anti-hFc, 25C
Reported kon values for a set of binders
measured_attribute: kon (M⁻¹ s⁻¹)

[
  {
    "binder": "H4H30071P (antibody, human IgG4 S228P, kappa, V domains shown, HCVR 42, LCVR 50) VH: QVQLQQSGPGLVKPSQTLSLTCAISGDSVSRNSAAWNWIRQSPSSGLEWLGRTYYRSKWFYDYAISVKSRITVNPDTSKNQFSLHLNSVTPEDTAVYYCARGYGGYEDYFDYWGQGTLVTVSS VL: DIQMTQSPSSVSASVGDRVTITCRASQGISSWLAWYQQKPGKAPKLLIYGASSLQSGVPSRFSGSGSGTDFTLTISSLQPEDFATYFCQQGSSFPYTFGQGTKLEIKR",
    "value_unit": "M⁻¹ s⁻¹",
    "recorded_measurement": 322000
  },
  {
    "binder": "H4H30045P (antibody, human IgG4 S228P, kappa, V domains shown, HCVR 179, LCVR 187) VH: QVQLVQSGAEVKKPGASVKVSCKTSGYRFVNYGFSWVRQAPGQGLEWMGWISPYNGNTNYIQNLQDRITMTTDTSTNTAYMELTNLRSDDTAVYYCATLTGVHFDYWGQGTLVTVSS VL: AIQMTQSPSSLSASVGDRVTITCRASQGIRNDLGWYQQKPGKAPNLLIFETSRLQSGVPSRFSGSGSGTDFTLTINSLQPEDFATYYCLQDYNYPWTFGQGTKVEIKR",
    "value_unit": "M⁻¹ s⁻¹",
    "recorded_measurement": 277000
  },
  {
    "binder": "H4H30063P (antibody, human IgG4 S228P, kappa, V domains shown, HCVR 2, LCVR 10; also called REGN15684) VH: QVQLQESGPGLVKPSETLSLTCTVSGDSINSYFWSWIRQLPGKELEWIGHIYSSGSTRYNPSLQSRVTISIDTSKNQFSLKLSSVTAADTAVYYCARGASAVDYWGQGTLVTVSS VL: EIVLTQSPGTLSLSPGERATLSCRTSQSISSGYLAWYQQKPGQAPRLLIYGASRRATGIPDRFSGSGSGTDFTLTISRLEPEDFVVYYCQQYGSSPYTFGQGTKLEIKR",
    "value_unit": "M⁻¹ s⁻¹",
    "recorded_measurement": 442000
  },
  {
    "binder": "H4H30076P (antibody, human IgG4 S228P, kappa, V domains shown) VH: EVQLVESGGGLVQPGGSLRLSCAASGFTVSSNYMSWVRQAPGKGLEWVSIIYSGGHTYYSDSVKGRFTISRHNSKNTLYLQMNSLRGGDTAVYYCARGYTSGWYGFDFWGQGTLVTVSS VL: DIQMTQSPSSVSASVGDRVTITCRASQGISTWLAWYQQKPGKAPKLLIYAASSLQSGVPSRFSGTGSGTDFTLTISSLQPEDFATYYCQQTNSFPWTFGQGTKVEIKR",
    "value_unit": "M⁻¹ s⁻¹",
    "recorded_measurement": 407000
  },
  {
    "binder": "H4H30061P (antibody, human IgG4 S228P, kappa, V domains shown) VH: EVQLVESGGGLAQPGGSLKLSCEASGFTFSDSAMHWVRQASGKGLEWVGRIRSKANSYATGYAASVKGRFTISRDDSKNMAFLEMNSLKTEDTAVYYCLRQTYGDPWGQGTLVTVSS VL: DVVMTQSPLSLSVTLGQPASISCRSSLSLVYSDGNNYLNWFQQRPGQSPRRLLYKVFNRDSGVPDRFSGSGSGTDFTLKISRVEAEDVGVYYCMQGTHWPWTFGQGTKVEIKR",
    "value_unit": "M⁻¹ s⁻¹",
    "recorded_measurement": 231000
  }
]
